Readings of Emission peak of the film for the listed molecules
# method: Absorption and emission spectrum in spin-coated film
# Assay type: physicochemical
# condition.details: spin-coated film
Write the number in nm without appending the unit.

CCCCCCCCc1ccc(-c2c(N(c3cc(F)c(F)c(F)c3)c3cc(N(c4cc(F)c(F)c(F)c4)c4ccc5ccccc5c4-c4ccc(CCCCCCCC)cc4)c4ccc5c(N(c6cc(F)c(F)c(F)c6)c6ccc7ccccc7c6-c6ccc(CCCCCCCC)cc6)cc(N(c6cc(F)c(F)c(F)c6)c6ccc7ccccc7c6-c6ccc(CCCCCCCC)cc6)c6ccc3c4c65)ccc3ccccc23)cc1; 497

As a next step, examine the molecule that follows.
Value lookup for Emission peak of the film; key = `CCCCCCCCc1ccc(-c2cc(N(c3ccc(C(C)(C)C)cc3)c3ccc(C(C)(C)C)cc3)ccc2N(c2cc(F)c(F)c(F)c2)c2cc(N(c3cc(F)c(F)c(F)c3)c3ccc(N(c4ccc(C(C)(C)C)cc4)c4ccc(C(C)(C)C)cc4)cc3-c3ccc(CCCCCCCC)cc3)c3ccc4c(N(c5cc(F)c(F)c(F)c5)c5ccc(N(c6ccc(C(C)(C)C)cc6)c6ccc(C(C)(C)C)cc6)cc5-c5ccc(CCCCCCCC)cc5)cc(N(c5cc(F)c(F)c(F)c5)c5ccc(N(c6ccc(C(C)(C)C)cc6)c6ccc(C(C)(C)C)cc6)cc5-c5ccc(CCCCCCCC)cc5)c5ccc2c3c54)cc1`
518

----------
# method: Absorption and emission spectrum in spin-coated film
# Type: physicochemical
# condition.details: spin-coated film
Catalogue of molecules with associated Emission peak of the film
Just the number please, in nm, no unit attached.

Here's what some known entries look like.
CCc1cccc(CC)c1N(c1cc(C(C)(C)C)cc(C(C)(C)C)c1)c1cc(N(c2cc(C(C)(C)C)cc(C(C)(C)C)c2)c2c(CC)cccc2CC)c2ccc3c(N(c4cc(C(C)(C)C)cc(C(C)(C)C)c4)c4c(CC)cccc4CC)cc(N(c4cc(C(C)(C)C)cc(C(C)(C)C)c4)c4c(CC)cccc4CC)c4ccc1c2c43 [compound 8]; 499
Cc1cccc(C)c1N(c1cc(C(C)(C)C)cc(C(C)(C)C)c1)c1cc(N(c2cc(C(C)(C)C)cc(C(C)(C)C)c2)c2c(C)cccc2C)c2ccc3c(N(c4cc(C(C)(C)C)cc(C(C)(C)C)c4)c4c(C)cccc4C)cc(N(c4cc(C(C)(C)C)cc(C(C)(C)C)c4)c4c(C)cccc4C)c4ccc1c2c43 [compound 5]; 497
CC1CCC(C(C)C)C(Oc2ccc(-c3cc(C(C)C)ccc3N(c3cc(F)c(F)c(F)c3)c3cc(N(c4cc(F)c(F)c(F)c4)c4ccc(C(C)C)cc4-c4ccc(OC5CC(C)CCC5C(C)C)cc4)c4ccc5c(N(c6cc(F)c(F)c(F)c6)c6ccc(C(C)C)cc6-c6ccc(OC7CC(C)CCC7C(C)C)cc6)cc(N(c6cc(F)c(F)c(F)c6)c6ccc(C(C)C)cc6-c6ccc(OC7CC(C)CCC7C(C)C)cc6)c6ccc3c4c65)cc2)C1 (stereo not drawn) [compound 15]; 491
CCCCCCCCc1ccc(-c2cc(OC)ccc2N(c2cc(F)c(F)c(F)c2)c2cc(N(c3cc(F)c(F)c(F)c3)c3ccc(OC)cc3-c3ccc(CCCCCCCC)cc3)c3ccc4c(N(c5cc(F)c(F)c(F)c5)c5ccc(OC)cc5-c5ccc(CCCCCCCC)cc5)cc(N(c5cc(F)c(F)c(F)c5)c5ccc(OC)cc5-c5ccc(CCCCCCCC)cc5)c5ccc2c3c54)cc1 [compound 16]; 496
CCc1cccc(CC)c1N(c1ccc(C(C)(C)C)cc1)c1cc(N(c2ccc(C(C)(C)C)cc2)c2c(CC)cccc2CC)c2ccc3c(N(c4ccc(C(C)(C)C)cc4)c4c(CC)cccc4CC)cc(N(c4ccc(C(C)(C)C)cc4)c4c(CC)cccc4CC)c4ccc1c2c43 [compound 9]; 499

Would you mind telling me what Emission peak of the film value was observed for CC(C)c1ccc(-c2cc(-c3cc(C(C)(C)C)cc(C(C)(C)C)c3)ccc2N(c2cc(F)c(F)c(F)c2)c2cc(N(c3cc(F)c(F)c(F)c3)c3ccc(-c4cc(C(C)(C)C)cc(C(C)(C)C)c4)cc3-c3ccc(C(C)C)cc3)c3ccc4c(N(c5cc(F)c(F)c(F)c5)c5ccc(-c6cc(C(C)(C)C)cc(C(C)(C)C)c6)cc5-c5ccc(C(C)C)cc5)cc(N(c5cc(F)c(F)c(F)c5)c5ccc(-c6cc(C(C)(C)C)cc(C(C)(C)C)c6)cc5-c5ccc(C(C)C)cc5)c5ccc2c3c54)cc1 [compound 14] ?
493
